Origin of measurements: patent US9980943B2

# System: β-galactosidase in CMV-LacZ C2C12 myotubes
# Assay protocol: CMV-LacZ secondary screen in C2C12 myotubes (β-Gal stabilizing assay)
# Assay type: cell-based, mouse
# Experimental parameters: 0.5 uM; C2C12 CMV-LacZ myotubes; fold relative to DMSO
We label by threshold. Values of CMV-LACZ in Myotubes, signal relative to DMSO strictly beneath 1 are y. Values of 1 and up are n.

                                   compound  class_name
0  Cc1noc(C)c1COc1ccc(C(=O)NCCc2ccccn2)cc1 [MLS001061374-01]           n
1  Cn1cc(CN(CCO)Cc2cccs2)c(-c2ccccc2F)n1 [MLS000732652-01]           n
2  CCc1nc2ccccc2c(C(=O)NCc2ccccc2)c1C [MLS000688267-01]           y
3  CCCCN(CC)Cc1ccc(CNC(=S)Nc2ccccc2F)o1 [MLS000689562-01]           y
4  CCN(CC(=O)NCc1cccs1)C(=O)COc1ccc(C(N)=O)cc1 [MLS002163101-01]           n
5  O=S(=O)(NC(=NC1CCCCC1)c1ccccc1F)c1ccccc1 [MLS000947910-01]           n
6  Cc1ccsc1CN(C)CC(=O)Nc1ccc([N+](=O)[O-])cc1Cl [MLS001172822-01]           n
7  Cc1nnc(-c2ccc(N3CCOCC3)c([N+](=O)[O-])c2)o1 [MLS001359861-01]           y

###

# Test system: α7 integrin (LacZ reporter in α7LacZ+/− myoblasts)
# Assay protocol: qHTS of the LOPAC library and MLSMR (online screen, α7LacZ+/− myoblasts)
# Experimental parameters: Mus musculus, Myoblast, 48 h, read-out: Activity at 38.30uM [%] **
Entries and their activation at 38.3 µM values follow.
Measurement type: activation at 38.3 µM (%)

>>> df
                                    compound       measurement_type  observed_result
 0      CSc1ncccc1C(=O)OCC(=O)c1cc(C)n(C)c1C  activation at 38.3 µM             72.9
 1  COc1cc(NC(=O)CN(C)S(=O)(=O)c2ccc3c(c2)CC(C)N3C(C)=O)cc(OC)c1OC (stereo not drawn)  activation at 38.3 µM             70.5
 2  CC(C(=O)Nc1ccc(C#N)cc1)N(C)CC(=O)Nc1cccc(F)c1 (stereo not drawn)  activation at 38.3 µM             37.2
 3  COC(=O)C1=NNC2(C)C(=O)N(c3ccc(C)cc3)C(=O)C12 (stereo not drawn)  activation at 38.3 µM             71.1
 4  COc1cc(/C=C2/C(=N)N3C(SC)=NSC3=NC2=O)ccc1OC(=O)c1ccco1  activation at 38.3 µM             73.4
 5  CC1=C(C#N)C(=O)N(C)C(=O)/C1=C\NNc1ccc(F)cc1  activation at 38.3 µM             51.8
 6  COCCN1C=C(C(=O)OC)C(c2ccccc2Cl)C(C(=O)OC)=C1  activation at 38.3 µM             85.5
 7  Cc1nc2c(cnn2-c2ccccc2)c(=O)n1/N=C/c1ccccc1  activation at 38.3 µM             68.4
 8             NC(=O)c1cccnc1Oc1ccc(Cl)cc1Cl  activation at 38.3 µM              105
 9         Oc1c(Br)cc(Br)cc1CNc1cccc2cccnc12  activation at 38.3 µM              161
10     COc1ccccc1C(=O)NCCOc1ccc(C(C)(C)C)cc1  activation at 38.3 µM             77.8
11  Cc1ccc(-c2onc3ccc(C(=O)/C=C/N(C)C)cc23)cc1  activation at 38.3 µM             69.1
12       CCOC(=O)c1sc(=N)n(-c2ccc(OC)cc2)c1C  activation at 38.3 µM             56.1
13  CCCN1C2CCCC1CC(NC(=O)c1cccc([N+](=O)[O-])c1)C2 (stereo not drawn)  activation at 38.3 µM             91.6
14  C[C@H]1CNC(=O)c2c(C(=O)Nc3ccc(CNC(=O)OC(C)(C)C)cc3)ncn21  activation at 38.3 µM             81.8
15          O=Cc1ccc(C(=O)OCC(=O)N2CCCC2)cc1  activation at 38.3 µM             71.8
16  CC(=O)Nc1ccc(NC(=O)c2cc(=O)c3cc(C)cc(C)c3o2)cc1  activation at 38.3 µM              106
17  CN(CC(=O)Nc1cccc(F)c1)C(=O)c1ccc(-c2ccc(Cl)cc2)o1  activation at 38.3 µM              146
18  CC(C)CC1NC(=O)N(CC(=O)N2c3ccccc3NC(=O)C2(C)C)C1=O (stereo not drawn)  activation at 38.3 µM             93.3
19  COc1ccc(CCNC(=O)c2nn(C)c3c2CS(=O)(=O)c2ccccc2-3)cc1OC  activation at 38.3 µM             84.2
20  COc1cc(Cl)cc(CN2CCC(CCC(=O)NC3CC3)CC2)c1OC  activation at 38.3 µM               44
21                       Cc1ccc(-c2csnn2)cc1  activation at 38.3 µM             87.6
22                COc1ccc(C(=O)CN2CCCCC2)cc1  activation at 38.3 µM             92.8
23  Cc1cc(N2CCOCC2)nc2ccc(N/C(S)=N/Cc3ccc4c(c3)OCO4)cc12  activation at 38.3 µM              107
24        Cc1cc(C)nc(NC(=O)c2ccc(Cl)cc2Cl)n1  activation at 38.3 µM             79.1
25  Cc1ccc(OCC(=O)N2CCN(S(=O)(=O)c3ccc4c(c3)OCCO4)CC2)c(C)c1  activation at 38.3 µM             53.8
26  COC(=O)C1=C(C)N=C(C)/C(=C(/O)OC)C1c1ccccc1OCc1c(C)no[n+]1[O-] (stereo not drawn)  activation at 38.3 µM              100
27  C=CCn1c(COc2ccc(Cl)cc2)nnc1SCc1ccc(C#N)cc1  activation at 38.3 µM             93.8
28  O=[N+]([O-])c1ccc(N2CCN(c3ccccc3F)CC2)nc1  activation at 38.3 µM              151
29  COCc1c(C(=O)OCc2nc(=O)c3sccc3[nH]2)oc2ccccc12  activation at 38.3 µM             68.1
30  O=C1CCc2cc(S(=O)(=O)Nc3ccc(C(F)(F)F)cc3)cc3c2N1CC3  activation at 38.3 µM             85.8
31       CC(=O)Nc1nonc1-c1nc2ccccc2n1CCC(C)C  activation at 38.3 µM               66
32  O=S(=O)(NCC(c1ccco1)N1CCOCC1)c1ccc(Cl)cc1 (stereo not drawn)  activation at 38.3 µM              128
33   O=C(CN1CCOCC1)NCc1cc([N+](=O)[O-])ccc1O  activation at 38.3 µM             87.7
34  Cc1ccc(NC(=O)COc2ccccc2CNC(C)(C)CC(C)(C)C)cc1  activation at 38.3 µM              182
35  NS(=O)(=O)c1ccc(NC(=O)c2ccc(CNS(=O)(=O)c3cc(C(F)(F)F)ccc3Cl)cc2)cc1  activation at 38.3 µM             73.3

###

Entries and their CMV-LACZ in Myotubes (β-galactosidase activity relative to DMSO) values follow.
# Test system: β-galactosidase in CMV-LacZ C2C12 myotubes
# Assay protocol: CMV-LacZ secondary screen in C2C12 myotubes (β-Gal stabilizing assay)
# Format: cell-based, mouse
# Experimental parameters: 40 uM; CMV-LacZ C2C12 myotubes; 96-well format
# Excerpt: In order to determine compounds that acted to stabilize β-gal in myogenic cells, a CMV-LacZ C2C12 cell line was used in a secondary screen. The EGFP gene from the pEGFP (Clontech) vector was replaced by LACZ PCR product with digests of the vector/PCR product performed using EcoRI (NEB) and NotI (NEB) and ligated using T4 DNA Ligase (NEB) following standard procedures to produce the CMV-LACZ vector. […]
Measurement type: CMV-LACZ in Myotubes (β-galactosidase activity relative to DMSO)

>>> df
                                   compound  observed_result
0  NC(=O)c1nsc(C(=O)N(c2ccccc2)C(C(=O)NCc2ccc(F)cc2)c2ccc(O)cc2)c1N (centres unmarked)             1.29
1  COc1ccc(N2CCCC2)c(NC(=O)c2ccc([N+](=O)[O-])o2)c1            1.781
2  O=C(NCc1ccccc1)C(c1ccc(O)cc1)N(C(=O)Cn1nnc(-c2cccs2)n1)c1ccc2c(c1)OCCO2 (centres unmarked)            1.055
3   C/C(=N\Nc1nncc2ccccc12)c1cccc(OC(F)F)c1            1.103
4           Cc1ccc(C2Nc3cccc4cccc(c34)N2)s1           0.4531
5  CN(C)S(=O)(=O)c1cccc(C(=O)Nc2ccc3c(c2)CCC3)c1            0.785
6  O=C(Nc1cc(Br)ccc1O)C1CC(c2ccccc2Cl)=NO1 (centres unmarked)            0.735
7  COc1ccc(-n2c(SCC(=O)Nc3cccc(C(=O)O)c3)nnc2-c2ccco2)cc1           0.9851
